Let's look at some compounds and their measured Euclidean distance.
# System: 786-O
# assay text: Euclidean distance of Cell Painting phenotypic profile (signed KS, 77 features) to DMSO centroid (dimensionless distance); 5 or 10 uM (library dependent); higher = stronger phenotypic change vs DMSO (phenoactivity)
# test parameters: 48 h
Where a name gives a salt, the structure may show the parent alone.

### Prompt For 786-O, give Euclidean distance of the listed compound: O=C(O)CSCC(=O)NC1CCSC1=O (stereo not given)
### Response 0.988

### Prompt For 786-O, give Euclidean distance of the listed compound: "CS(=O)(=O)CCNCc1ccc(-c2ccc3ncnc(Nc4ccc(OCc5cccc(F)c5)c(Cl)c4)c3c2)o1"
### Response 3.78

### Prompt For 786-O, give Euclidean distance of the listed compound: NCCCC(N)(C(=O)O)C(F)F (stereo not given) [Eflornithine hydrochloride hydrate]
### Response 1.45

### Prompt For 786-O, give Euclidean distance of the listed compound: O=C1NCC2(CCN(CCc3ccccc3)CC2)O1 [Fenspiride HCl]
### Response 0.914

### Prompt For 786-O, give Euclidean distance of the listed compound: "CC(C)(C)C#Cc1cc(N(C(=O)[C@H]2CC[C@H](C)CC2)[C@H]2CC[C@H](O)CC2)c(C(=O)O)s1"
### Response 0.681

### Prompt For 786-O, give Euclidean distance of the listed compound: CCOc1cc(N)c(Cl)cc1C(=O)NCC1CN(Cc2ccc(F)cc2)CCO1 (stereo not given) [Mosapride]
### Response 1.2

### Prompt For 786-O, give Euclidean distance of the listed compound: CCCCNc1ccc(C(=O)OCCOCCOCCOCCOCCOCCOCCOCCOCCOC)cc1 [Benzonatate]
### Response 1.17

### Prompt For 786-O, give Euclidean distance of the listed compound: "CN(C)C(=O)c1cc2cnc(Nc3ccc(N4CCNCC4)cn3)nc2n1C1CCCC1"
### Response 2.35

### Prompt For 786-O, give Euclidean distance of the listed compound: "COC(=O)N1CCN(Cc2cccc(NC(=O)Nc3ccc(C)nc3)c2F)CC1"
### Response 1.27

### Prompt For 786-O, give Euclidean distance of the listed compound: "CCOCc1nc2c(N)nc3ccccc3c2n1CC(C)(C)O"
### Response 1.35

### Prompt For 786-O, give Euclidean distance of the listed compound: Cc1ccc(/C(=C\CN2CCCC2)c2ccccn2)cc1 [Triprolidine Hydrochloride]
### Response 0.627

### Prompt For 786-O, give Euclidean distance of the listed compound: "N#Cc1ccnc(N2C(=O)CC[C@H]2C(=O)N(c2cncc(F)c2)[C@H](C(=O)NC2CC(F)(F)C2)c2ccccc2Cl)c1"
### Response 0.973

### Prompt For 786-O, give Euclidean distance of the listed compound: "S=C(NCc1ccc2c(c1)OCO2)N1CCN(c2ncnc3c2oc2ccccc23)CC1"
### Response 1.2

### Prompt For 786-O, give Euclidean distance of the listed compound: CNCCc1ccccn1 [Betahistine]
### Response 1.31

### Prompt For 786-O, give Euclidean distance of the listed compound: "COc1cc2c(Nc3ccc(NC(=O)c4ccccc4)cc3)ncnc2cc1OCCCN1CCOCC1"
### Response 2.71

---

Let's look at some compounds and their measured Euclidean distance.
# Test system: DU145
# assay text: Euclidean distance of Cell Painting phenotypic profile (signed KS, 77 features) to DMSO centroid (dimensionless distance); 5 or 10 uM (library dependent); higher = stronger phenotypic change vs DMSO (phenoactivity)
# test parameters: 48 h
Structures can show the parent of a compound that is named as a salt.
Keep it simple and answer with nothing but the number.

Here's what some known entries look like.
{"compound": "Cc1nnc(SCC2=C(C(=O)O)N3C(=O)[C@@H](NC(=O)Cn4cc(Cl)c(=O)c(Cl)c4)[C@H]3SC2)s1 [Cefazedone]", "Euclidean distance": 0.667}
{"compound": "CC(=O)Oc1cccc2c1C(=O)c1c(OC(C)=O)cc(C(=O)O)cc1C2=O [Diacerein]", "Euclidean distance": 1.19}
{"compound": "O=C1NCC2(CCN(CCc3ccccc3)CC2)O1 [Fenspiride HCl]", "Euclidean distance": 1.2}

### Prompt Return reported Euclidean distance. Input compound: Cc1cc(C(C)(C)C)c(O)c(C(C)(C)C)c1 [Butylated hydroxytoluene]
### Response 0.885

### Prompt Return reported Euclidean distance. Input compound: CCn1c(=O)c(-c2cc(NC(=O)Nc3ccccc3)c(F)cc2Br)cc2cnc(NC)cc21 [Ripretinib (DCC-2618)]
### Response 2.91

### Prompt Return reported Euclidean distance. Input compound: CCCN(CCC)S(=O)(=O)c1ccc(C(=O)O)cc1 [Probenecid]
### Response 1.42

### Prompt Return reported Euclidean distance. Input compound: O=C(CCc1ccc(O)cc1)c1c(O)cc(O)cc1O[C@@H]1O[C@H](CO)[C@@H](O)[C@H](O)[C@H]1O [Phlorizin]
### Response 0.673

### Prompt Return reported Euclidean distance. Input compound: CN1CCc2c(c3ccccc3n2Cc2ccc(C(=O)NO)cc2)C1 [Tubastatin A HCl]
### Response 0.783
